Details: 85 K; 101.33 kPa; Crystal; relaxation calorimetry
± gives the expanded uncertainty stated by the source.
Each entry below lists one item and its recorded molar entropy value.
observation type: molar entropy

[[record]]
molecule = "O[C@H]1[C@H](O)[C@@H](O)[C@H](O)[C@@H](O)[C@H]1O [cis-1,2,3,5-trans-4,6-cyclohexanehexol]"
observation_type = "molar entropy"
reported = "43.26 ± 4 J/K/mol"

[[record]]
molecule = "OC[C@@H](O)[C@H](O)[C@@H](O)CO [xylitol]"
observation_type = "molar entropy"
reported = "44.01 ± 4 J/K/mol"

[[record]]
molecule = "OC[C@@H](O)C(O)[C@H](O)CO [D-arabitol]"
observation_type = "molar entropy"
reported = "46.7 ± 4.3 J/K/mol"

[[record]]
molecule = "OC[C@@H](O)[C@@H](O)[C@H](O)[C@H](O)CO [D-mannitol]"
observation_type = "molar entropy"
reported = "53.19 ± 4.9 J/K/mol"

[[record]]
molecule = "OC[C@@H](O)[C@@H](O)CO [meso-1,2,3,4-butanetetrol]"
observation_type = "molar entropy"
reported = "40.23 ± 3.7 J/K/mol"

[[record]]
molecule = "OC[C@H](O)C(O)[C@@H](O)CO [L-(-)-arabitol]"
observation_type = "molar entropy"
reported = "47.12 ± 4.3 J/K/mol"


* * *

Listed here are molecules together with their documented molar heat capacity at constant pressure.
Assay: molar heat capacity at constant pressure
Settings: 50 K; 101.33 kPa; Crystal; relaxation calorimetry
observation type: molar heat capacity at constant pressure (J/K/mol)

[[record]]
molecule = "OC[C@@H](O)[C@@H](O)[C@H](O)[C@H](O)CO"
observation_type = "molar heat capacity at constant pressure"
value_unit = "J/K/mol"
reported = 41.11

[[record]]
molecule = "OC[C@@H](O)C(O)[C@H](O)CO"
observation_type = "molar heat capacity at constant pressure"
value_unit = "J/K/mol"
reported = 36.09

[[record]]
molecule = "O[C@H]1[C@H](O)[C@@H](O)[C@H](O)[C@@H](O)[C@H]1O [cis-1,2,3,5-trans-4,6-cyclohexanehexol]"
observation_type = "molar heat capacity at constant pressure"
value_unit = "J/K/mol"
reported = 31.58

[[record]]
molecule = "OC[C@H](O)C(O)[C@@H](O)CO [L-(-)-arabitol]"
observation_type = "molar heat capacity at constant pressure"
value_unit = "J/K/mol"
reported = 36.42

[[record]]
molecule = "OC[C@@H](O)[C@@H](O)CO"
observation_type = "molar heat capacity at constant pressure"
value_unit = "J/K/mol"
reported = 30.63

[[record]]
molecule = "OC[C@@H](O)[C@H](O)[C@@H](O)CO"
observation_type = "molar heat capacity at constant pressure"
value_unit = "J/K/mol"
reported = 33.53


* * *

As shown below, each of these molecules has a reported molar heat capacity at constant pressure value.
Assay: molar heat capacity at constant pressure
Details: 221.15 K; 101.33 kPa; Crystal; Small sample (50 mg) DSC
± gives the expanded uncertainty stated by the source.
observation type: molar heat capacity at constant pressure

[[record]]
molecule = "OC[C@@H](O)C(O)[C@H](O)CO"
reported = "149.24 ± 12 J/K/mol"

[[record]]
molecule = "OC[C@@H](O)[C@@H](O)[C@H](O)[C@H](O)CO"
reported = "173.38 ± 28 J/K/mol"

[[record]]
molecule = "OC[C@@H](O)[C@@H](O)CO"
reported = "124.32 ± 15 J/K/mol"

[[record]]
molecule = "O[C@H]1[C@H](O)[C@@H](O)[C@H](O)[C@@H](O)[C@H]1O [cis-1,2,3,5-trans-4,6-cyclohexanehexol]"
reported = "159.51 ± 22 J/K/mol"

[[record]]
molecule = "OC[C@@H](O)[C@H](O)[C@@H](O)CO"
reported = "155.65 ± 9.6 J/K/mol"

[[record]]
molecule = "OC[C@H](O)C(O)[C@@H](O)CO [L-(-)-arabitol]"
reported = "153.99 ± 31 J/K/mol"

